System: A2780 (ovarian carcinoma)
assay notes: SRB cytotoxicity assay, A2780
Format: cell-based
condition summary: Homo sapiens, 72 h of treatment, mean ± standard mean error
This section presents compounds with their documented pEC50 values.
# pEC50: negative log10 of molar concentration; output just the value

In the examples that follow, each entry is paired with its recorded pEC50.
CC(=O)O[C@H]1CC[C@@]2(C)C(CC[C@]3(C)C2CC=C2C4CC(C)(C)CC[C@]4(C(=O)O)CC[C@]23C)C1(C)C (stereo partly shown) | 5.03
C=C(C)[C@@H]1CC[C@]2(C(=O)O)CC[C@]3(C)[C@H](CC[C@@H]4[C@@]5(C)CC[C@H](OC(C)=O)C(C)(C)[C@@H]5CC[C@]43C)[C@@H]12 | 4.74

IN: pEC50 lookup needed for CCN(CC)c1ccc2c(-c3ccccc3C(=O)N3CCN(C(=O)[C@]45CC[C@@H](C(C)=O)C4C4CCC6[C@@]7(C)CC[C@H](OC(C)=O)C(C)(C)C7CC[C@@]6(C)[C@]4(C)CC5)CC3)c3ccc(=[N+](CC)CC)cc-3oc2c1 (stereo partly shown) , thanks.
OUT: 7.44

IN: Then what about the compound CCN(CC)c1ccc2c(-c3ccccc3C(=O)N3CCCN(C(=O)[C@]45CC[C@@H](C(C)=O)C4C4CCC6[C@@]7(C)CC[C@H](OC(C)=O)C(C)(C)C7CC[C@@]6(C)[C@]4(C)CC5)CC3)c3ccc(=[N+](CC)CC)cc-3oc2c1 (stereo partly shown) ?
OUT: 6.92
